System: NCI-H460 lung
Assay: NCI tumour cell line growth inhibition, 48 h
Answer each item with its documented TGI.
Kindly answer with a numeric value in µM, unit omitted.

// sample CCCCCCCCCCCCOC(=S)NC , its TGI was 34

TGI reported for this compound COc1cc(C(=O)OC2CC(C)=CC[C@@]3(C)CC[C@](O)(C(C)C)C23)ccc1O (some centres undefined) : 32.5

====

Tested on: SF-539 CNS
Assay: NCI tumour cell line growth inhibition, 48 h
Classify by measured TGI: fulfilled if it is equal to or exceeds 50 µM, not fulfilled if it is smaller.

Q: // inclusive: TGI at least 50 µM? input: Cc1cc(C)c(N)c(C)c1N
A: fulfilled

Q: Could you tell me if the measured TGI of Cc1ccc2oc(=O)cc(C3c4ccc([nH]4)C(c4cc(=O)oc5ccc(C)cc45)c4ccc([nH]4)C(c4cc(=O)oc5ccc(C)cc45)c4ccc([nH]4)C(c4cc(=O)oc5ccc(C)cc45)c4ccc3[nH]4)c2c1 (stereo unspecified) reaches 50 µM or more?
A: not fulfilled

Q: Say whether COc1cc(OC)c(NC2=NCCO2)cc1Cl shows TGI of 50 µM or more.
A: fulfilled

Q: State whether the measured TGI reaches 50 µM, counting equality as reaching it, for CS(=O)(=O)OC1CCN(C2(c3cccc(O)c3)CCCCC2)CC1
A: fulfilled

Q: Exam item: decide whether the reported TGI for CN(C(=O)C1CC1)C1C2CN3CCC(O2)C13 (stereo unspecified) is at least 50 µM.
A: fulfilled

Q: Decide: TGI of Cc1[nH]ccc2cc3nc4ccccc4c3cc12 >= 50 µM?
A: not fulfilled

Q: Hello, I need to know if Cn1nc2ccc3nccc(NCCNCCCl)c3c2n1 has measured TGI not below 50 µM. Thanks!
A: fulfilled

Q: Dear colleague, could you confirm whether CCOC(=O)CC(=Nc1cc(C)on1)N(CC)CC has TGI at or above 50 µM?
A: fulfilled

Q: Textbook exercise: given the entry COc1ccc(CC(C#N)c2cc(OC)c(OC)c(OC)c2)cc1 (stereo unspecified) , state whether its TGI is greater than or equal to 50 µM.
A: not fulfilled

Q: Entry CCOC(CN(C)C(=O)OCC(Cl)(Cl)Cl)OCC : is its TGI no less than 50 µM?
A: fulfilled

Q: Quick check: does O=C(O)CCc1nc(-c2ccccc2)c(-c2ccccc2)o1 have TGI greater than or equal to 50 µM?
A: fulfilled

Q: Entry C=CC1=C(C)C(Cc2[nH]c(/C=c3\[nH]/c(=C/C4=NC(=O)C(C)/C4=C\C)c(C)c3CCC(=O)O)c(CCC(=O)OC)c2C)NC1=O (stereo unspecified) : is its TGI no less than 50 µM?
A: fulfilled

Q: Exam item: decide whether the reported TGI for O=C1c2c(O)cccc2C(C(=O)CCCC(=O)C2c3cccc(O)c3C(=O)c3c(O)cccc32)c2cccc(O)c21 is at least 50 µM.
A: not fulfilled

Q: Is reported TGI greater than or equal to 50 µM here: O=C(O)C1C2CCC(C2)C1c1ccccc1 (stereo unspecified)
A: fulfilled

Q: Test whether the molecule N=C(N)Cn1cnc2ccccc21 records TGI of 50 µM or higher.
A: fulfilled

Q: Check this molecule for TGI at or above 50 µM: COc1ccc2nc(C3=CN(C4OC(CO)C(O)C(O)C4O)C4C=CC=CC34)sc2c1 (stereo unspecified)
A: fulfilled

Q: Does the reported TGI for Nc1ccc(S(=O)(=O)c2ccc(N=[N+]([O-])c3ccc(S(=O)(=O)c4ccc(N)cc4)cc3)cc2)cc1 fall at or above the 50 µM mark?
A: fulfilled

Q: Test whether the molecule C#CCOc1cccc(Nc2ncnc3c2ncn3C2CCN(C(=O)CCl)C2)c1 (stereo unspecified) records TGI of 50 µM or higher.
A: not fulfilled

Q: Decide: is the reported value of TGI for COC(=O)NN=C1C(C)(C)C(=NNC(=O)OC)C1(C)C equal to or greater than 50 µM?
A: fulfilled
